Hey, just so you know, these numbers are from ChEMBL document CHEMBL1122318.

assay: Half-life period at pH 5.80(in 0.1 M acetate).; type: ADME; conditions: 0.1 M acetate buffer, pH 5.8
recordedEndpoint: half-life (h)
Kindly provide the numeric value in h only, without the unit symbol.

input: Complete the entry with half-life for Oc1ccc2c(c1O)-c1cccc3c1[C@@H](C2)N(CCCl)CC3
output: 1.78

====

assay: Half-life period at pH 8.00(in 0.1 M […]).; format: ADME; conditions: 0.1 M […] buffer
recordedEndpoint: half-life (min)
Return type: number; implicit unit min.

input: Input Oc1ccc2c(c1O)-c1cccc3c1[C@@H](C2)N(CCCl)CC3 , output reported half-life.
output: 22

====

test: Half-life period at pH 5.40(in 0.1 M acetate).; assay type: ADME; conditions: 0.1 M acetate buffer, pH 5.4
recordedEndpoint: half-life (h)
Give the value, in units of h, as a plain number.

input: Note half-life for the compound shown: Oc1ccc2c(c1O)-c1cccc3c1[C@@H](C2)N(CCCl)CC3
output: 3.2

====

test: Half-life period at pH 6.00(in 0.1 M […]).; assay type: ADME; conditions: 0.1 M acetate buffer
recordedEndpoint: half-life (h)
Quick note: give the figure in h, leave out the unit.

input: In one line, give reported half-life of the entry Oc1ccc2c(c1O)-c1cccc3c1[C@@H](C2)N(CCCl)CC3 .
output: 1.18

====

assay: Half-life period at pH 6.75(in 0.1 M […]).; assay type: ADME; details: 0.1 M […] buffer
recordedEndpoint: half-life (min)
Express your answer in min, writing the number without its unit.

input: Item Oc1ccc2c(c1O)-c1cccc3c1[C@@H](C2)N(CCCl)CC3 : provide half-life
output: 33

====

test: Half-life period at pH 6.50(in 0.1 M […]).; type: ADME; details: 0.1 M […] buffer, pH 6.5
recordedEndpoint: half-life (min)
Express it in min; write the number only.

input: Look up half-life of Oc1ccc2c(c1O)-c1cccc3c1[C@@H](C2)N(CCCl)CC3 and report it.
output: 39

====

assay: Half-life period at pH 5.60(in 0.1 M acetate).; format: ADME; conditions: 0.1 M acetate buffer, pH 5.6
recordedEndpoint: half-life (min)
Write the answer as a number in min, unit excluded.

input: # return recorded half-life for input Oc1ccc2c(c1O)-c1cccc3c1[C@@H](C2)N(CCCl)CC3
output: 141

====

assay: Half-life period at pH 7.00(in 0.1 M […]).; assay type: ADME; conditions: 0.1 M acetate buffer
recordedEndpoint: half-life (min)
Provide the reading as a plain figure in min.

input: Provide half-life value for the following compound: Oc1ccc2c(c1O)-c1cccc3c1[C@@H](C2)N(CCCl)CC3
output: 29
